Origin of measurements: patent US9877923B2

procedure-text: Dasatinib solubility in selected solvents with or without acid doping (by HPLC)
condition-info: 3% TFA in 7.5% water in benzyl alcohol, organic solvent or mixture
readout: solubility (mg/mL)
Expressed in mg/mL, but write only the number.

Give a short answer stating reported solubility for Cc1nc(Nc2ncc(C(=O)Nc3c(C)cccc3Cl)s2)cc(N2CCN(CCO)CC2)n1 [Dasatinib, dasatinib] .
157

* * *

procedure-text: Dasatinib solubility in selected solvents with or without acid doping (by HPLC)
condition-info: 1% TFA in benzyl alcohol, organic solvent or mixture
readout: solubility (mg/mL)
Numeric answer only, unit mg/mL assumed.

Identify the reported solubility for the following entry. Cc1nc(Nc2ncc(C(=O)Nc3c(C)cccc3Cl)s2)cc(N2CCN(CCO)CC2)n1
56.5

* * *

procedure-text: Dasatinib solubility in selected solvents with or without acid doping (by HPLC)
condition-info: 7.5% water in benzyl alcohol, organic solvent or mixture
readout: solubility (mg/mL)
Reply numerically in mg/mL, unit not repeated.

Return value of solubility for input Cc1nc(Nc2ncc(C(=O)Nc3c(C)cccc3Cl)s2)cc(N2CCN(CCO)CC2)n1 , no commentary.
32.8

* * *

procedure-text: Dasatinib solubility in selected solvents with or without acid doping (by HPLC)
condition-info: 3% TFA in benzyl alcohol, organic solvent or mixture
readout: solubility (mg/mL)
Provide only the numeric value, understood in mg/mL.

Dear colleague, please send me the reported solubility for Cc1nc(Nc2ncc(C(=O)Nc3c(C)cccc3Cl)s2)cc(N2CCN(CCO)CC2)n1 when you can.
141
